Experiment: NCI Yeast Anticancer Drug Screen. Data for the mec2-1 strain (AID 157)
Conditions: S. cerevisiae mec2-1 strain, at 1.2 µM, hits give high values
This is part of a sample that, as a whole, favours compounds with a hit. Of some 79,000 tested, about 15% had one in any assay. Activity calls are given as the source filed them. Cut-off read from the data, not from the text of the source: active = growth inhibition above about 70%; inactive = the rest.
Known growth inhibition of a selection of molecules

- Molecule: "CC(C)=CC(=O)O[C@@H]1CC(C)(C)CC2C3=CCC4[C@]56CC[C@](O)(OC5)C(C)(C)C6CC[C@@]4(C)C3(C)CC[C@]21C(=O)O (stereo not given in full)"
  growth inhibition: "-8% (inactive)"
- Molecule: "CC1OCC2OC(C)OC(C3C4=C(CC(C)(C)CC4=O)OC4=C3C(=O)CC(C)(C)C4)C2O1 (stereo not given)"
  growth inhibition: "0% (inactive)"
- Molecule: "c1ccc2c(c1)c1ncccc1c1nccnc21"
  growth inhibition: "1% (inactive)"
- Molecule: "COc1ccc(Br)c(C(=O)Sc2nnnn2-c2cccc(Cl)c2)c1"
  growth inhibition: "13% (inactive)"
- Molecule: "N#Cc1c(N)[nH]c2ccc(Sc3ccccc3)cc12"
  growth inhibition: "-2% (inactive)"
- Molecule: "Cc1ccc(S(=O)(=O)NC(=O)NC2=NC(C)(C)N(c3ccc(Cl)c(Cl)c3)C(N)=N2)cc1"
  growth inhibition: "-2% (inactive)"
- Molecule: "Fc1ccc(NC(=S)SCc2ccc(Cl)c(Cl)c2)cc1F"
  growth inhibition: "-4% (inactive)"
- Molecule: "O=C1OC(=O)C2CCCC3CCCC1C32 (stereo not given)"
  growth inhibition: "39% (inactive)"
- Molecule: "COc1ccc(NC(=S)N/N=C(\\c2ccccc2)c2ccccn2)cc1"
  growth inhibition: "0% (inactive)"
- Molecule: "CN(C)c1nc2sc3c(c2c(=O)o1)CCCC3"
  growth inhibition: "1% (inactive)"
